B1: TPR t1 (parent)
chain: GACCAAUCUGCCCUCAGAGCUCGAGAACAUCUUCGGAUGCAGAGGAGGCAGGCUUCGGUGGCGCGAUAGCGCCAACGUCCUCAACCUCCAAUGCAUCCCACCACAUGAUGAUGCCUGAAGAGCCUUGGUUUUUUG

variants of: B1; experiment: polymerase ribozyme fitness, log enrichment relative to wild type (log ratio); higher = more active; in vitro selection for triplet polymerase activity
Below, each of the variants is paired with its reported polymerase ribozyme fitness (log ratio) value.
observed property: polymerase ribozyme fitness (log ratio)

INSERT INTO measurements (variant_label, recorded_measurement) VALUES
  ('G45C G69A G117U', -6.59),
  ('C11G U78G C98U', -0.594),
  ('U21A U81A C101A G113C', -4.64),
  ('A75G C88G', -1.04),
  ('C85U U112A G122U U126G', -4.47),
  ('A46U U92C A100U G113C', -4.52),
  ('A16G C49A C73U', -0.946),
  ('C11G G61A', 1);
